biological target: human TLR7 (Homo sapiens); test: HEK293-Blue-hTLR-7 cells assay (SEAP reporter, R848 stimulation); settings: HEK293-Blue-hTLR7 cells, R848, 20 hrs; read-out: HEK/hTLR7 IC50
Kindly apply the following: fulfilled if IC50 is less than 9 nM, not fulfilled in every other case.

MOLECULE: Cc1cc(N2Cc3ccc(N4CCC(N(C)C)CC4)nc3[C@@H](C)C2)c2cnn(C)c2n1 [Example 60]
TGT: human TLR7 (Homo sapiens)
CLASSIFICATION: fulfilled

MOLECULE: Cc1cc(N2Cc3cnc(OCCN4CCNCC4)cc3[C@@H](C)C2)c2cnn(C)c2n1 [Example 77]
TGT: human TLR7 (Homo sapiens)
CLASSIFICATION: not fulfilled

MOLECULE: CCn1ncc2c(N3Cc4ccc(N5CCNCC5)cc4[C@@H](C)C3)ccnc21 [Example 22]
TGT: human TLR7 (Homo sapiens)
CLASSIFICATION: not fulfilled

MOLECULE: Cc1cc(N2Cc3cnc(N4CC5(CNCCO5)C4)cc3[C@@H](C)C2)c2cnn(C)c2n1 [Example 79]
TGT: human TLR7 (Homo sapiens)
CLASSIFICATION: not fulfilled

MOLECULE: Cc1cc(N2Cc3ccc(N4CCC5(CCNCC5)CC4)cc3C(C)C2)c2cnn(C)c2n1 (centres unmarked) [Example 5]
TGT: human TLR7 (Homo sapiens)
CLASSIFICATION: fulfilled

MOLECULE: C[C@H]1CN(c2ccnc3c2cnn3C)Cc2ccc(N3CCN(c4cc5c(cn4)CCNC5)CC3)cc21 [Example 9]
TGT: human TLR7 (Homo sapiens)
CLASSIFICATION: fulfilled

MOLECULE: Cc1cc(N2Cc3ccc(N4CCN(C)CC4)nc3[C@@H](C)C2)c2cnn(C)c2n1 [Example 67]
TGT: human TLR7 (Homo sapiens)
CLASSIFICATION: not fulfilled

----------
As shown below, each of these compounds has a reported IC50 value.
Molecular target: human TLR7 (Homo sapiens, UniProt Q9NYK1)
Construct: host or cells: HEK293 (HEK-Blue hTLR7)
Sequence (Q9NYK1 27-1049): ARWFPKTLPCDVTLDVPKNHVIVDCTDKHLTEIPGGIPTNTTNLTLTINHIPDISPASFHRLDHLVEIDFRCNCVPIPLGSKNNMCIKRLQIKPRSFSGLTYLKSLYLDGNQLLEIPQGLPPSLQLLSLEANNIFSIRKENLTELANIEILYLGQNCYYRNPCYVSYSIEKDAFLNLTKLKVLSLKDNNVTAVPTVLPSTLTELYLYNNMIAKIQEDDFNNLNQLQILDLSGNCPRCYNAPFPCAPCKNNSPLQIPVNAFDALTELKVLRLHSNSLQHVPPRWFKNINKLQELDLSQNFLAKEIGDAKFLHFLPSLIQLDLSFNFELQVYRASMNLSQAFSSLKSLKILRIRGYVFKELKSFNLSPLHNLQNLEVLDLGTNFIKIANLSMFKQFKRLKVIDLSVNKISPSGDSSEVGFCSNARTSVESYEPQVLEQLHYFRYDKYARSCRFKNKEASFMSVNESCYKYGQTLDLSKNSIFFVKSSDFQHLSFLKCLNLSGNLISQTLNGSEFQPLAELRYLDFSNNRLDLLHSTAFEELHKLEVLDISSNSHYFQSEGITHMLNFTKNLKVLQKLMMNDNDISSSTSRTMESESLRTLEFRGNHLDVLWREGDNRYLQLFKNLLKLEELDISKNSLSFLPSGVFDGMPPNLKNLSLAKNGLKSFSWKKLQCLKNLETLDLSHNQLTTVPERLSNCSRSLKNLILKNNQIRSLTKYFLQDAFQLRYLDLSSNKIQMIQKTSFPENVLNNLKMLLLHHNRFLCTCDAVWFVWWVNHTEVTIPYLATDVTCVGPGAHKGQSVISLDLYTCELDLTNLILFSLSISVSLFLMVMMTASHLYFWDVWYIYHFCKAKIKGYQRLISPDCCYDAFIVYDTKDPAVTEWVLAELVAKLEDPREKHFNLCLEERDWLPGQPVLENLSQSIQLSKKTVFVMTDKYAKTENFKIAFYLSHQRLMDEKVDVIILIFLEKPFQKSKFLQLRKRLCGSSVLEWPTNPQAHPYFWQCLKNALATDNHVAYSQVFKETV
Assay: HEK293-Blue-hTLR-7 cells assay (SEAP reporter, R848 stimulation)
Assay type: cell-based
Details: HEK293-Blue-hTLR7 cells, R848, 20 hrs; read-out: HEK/hTLR7 IC50
READOUT: IC50 (nM)

COMPOUND: Cn1ncc2c(N3Cc4ccc(N5CCC6(CCNCC6)CC5)cc4C(C)(C)C3)ccnc21 [Example 6]
TGT: human TLR7 (Homo sapiens, UniProt Q9NYK1)
READOUT: IC50
READING UNIT: nM
ENDPOINT VALUE: 26

COMPOUND: Cc1cc(N2Cc3ccc(N4CCC(O)(CN(C)C)CC4)nc3[C@@H](C)C2)c2cnn(C)c2n1 [Example 61]
TGT: human TLR7 (Homo sapiens, UniProt Q9NYK1)
READOUT: IC50
READING UNIT: nM
ENDPOINT VALUE: 3

COMPOUND: C[C@H]1CN(c2ccnc3c2cnn3C)Cc2ccc(N3C[C@@H]4CCNC[C@@H]4C3=O)cc21 (single isomer, unassigned) [Example 57]
TGT: human TLR7 (Homo sapiens, UniProt Q9NYK1)
READOUT: IC50
READING UNIT: nM
ENDPOINT VALUE: 8

COMPOUND: C[C@H]1CN(c2ccnc3c2cnn3C)Cc2ccc(O[C@@H]3C[C@H]4CNCCN4C3)cc21 [Example 42]
TGT: human TLR7 (Homo sapiens, UniProt Q9NYK1)
READOUT: IC50
READING UNIT: nM
ENDPOINT VALUE: 3

COMPOUND: Cc1cc(N2Cc3ccc(N4C[C@@H](N)[C@H](O)C4)cc3[C@@H](C)C2)c2cnn(C)c2n1 [Example 47]
TGT: human TLR7 (Homo sapiens, UniProt Q9NYK1)
READOUT: IC50
READING UNIT: nM
ENDPOINT VALUE: 13

COMPOUND: COC[C@H]1CN(c2cc3c(cn2)CN(c2cc(C)nc4c2cnn4C)C[C@@H]3C)CCN1 [Example 81]
TGT: human TLR7 (Homo sapiens, UniProt Q9NYK1)
READOUT: IC50
READING UNIT: nM
ENDPOINT VALUE: 41

COMPOUND: C[C@H]1CN(c2ccnc3c2cnn3C)Cc2ccc(N3CCN[C@@H](CO)C3)cc21 [Example 50]
TGT: human TLR7 (Homo sapiens, UniProt Q9NYK1)
READOUT: IC50
READING UNIT: nM
ENDPOINT VALUE: 10
